# ASSAY REMARKS: Half life in Sprague Dawley rat at 10 mg/kg, ip measured after 24 hrs
# Assay type: ADME, organism-based
# EXPERIMENTAL SETUP: in vivo
ATTRIBUTE MEASURED: half-life (h)

>>> numeric_readout("CC(C)Oc1cc(F)ccc1Nc1ncnc2ccc(-c3ccc(C(=O)N4CCNCC4)cc3)nc12")
4.4

###

# TARGET OR SYSTEM: MAP kinase-interacting serine/threonine-protein kinase 1 (Homo sapiens)
# Sequence (Q9BUB5 whole entry, looked up): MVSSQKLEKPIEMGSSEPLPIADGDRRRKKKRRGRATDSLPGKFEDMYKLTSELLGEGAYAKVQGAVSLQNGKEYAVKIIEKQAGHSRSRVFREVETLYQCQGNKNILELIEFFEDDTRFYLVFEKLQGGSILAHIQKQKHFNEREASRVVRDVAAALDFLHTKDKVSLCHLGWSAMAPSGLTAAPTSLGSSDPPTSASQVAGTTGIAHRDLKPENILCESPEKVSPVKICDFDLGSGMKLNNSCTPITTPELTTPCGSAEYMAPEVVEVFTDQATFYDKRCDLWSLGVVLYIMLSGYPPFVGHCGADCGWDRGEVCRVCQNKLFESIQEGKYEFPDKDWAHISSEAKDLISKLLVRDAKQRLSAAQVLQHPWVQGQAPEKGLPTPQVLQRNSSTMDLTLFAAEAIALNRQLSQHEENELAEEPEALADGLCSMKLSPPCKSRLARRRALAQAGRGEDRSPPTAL
# ASSAY REMARKS: Inhibition of MKN1 (unknown origin) at 1 uM in presence of ATP by HTRF assay
ATTRIBUTE MEASURED: inhibition (%)

>>> numeric_readout("COc1cc(Nc2ncnc3ccc(-c4ccc(C(=O)N5CCNCC5)cc4)nc23)ccc1F")
90
>>> numeric_readout("O=C(c1ccc(-c2ccc3ncnc(Nc4ccc(C(F)(F)F)cc4)c3n2)cc1)N1CCNCC1")
0
>>> numeric_readout("O=C(c1cccc(-c2ccc3ncnc(Nc4ccccc4)c3n2)c1)N1CCNCC1")
57
>>> numeric_readout("COc1cc(F)ccc1Nc1ncnc2ccc(-c3ccc(C(=O)N4CCNCC4)cc3)nc12")
89
>>> numeric_readout("COc1ccc(Nc2ncnc3ccc(-c4ccc(C(=O)N5CCNCC5)cc4)nc23)cc1")
7
>>> numeric_readout("O=C(c1ccc(-c2ccc3ncnc(Nc4ccccc4F)c3n2)cc1)N1CCNCC1")
34
>>> numeric_readout("CC(C)Oc1cc(F)ccc1Nc1ncnc2ccc(-c3ccc(C(=O)N4CCNCC4)cc3)nc12")
97
